- MEASURED_TARGET: furin, P09958;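 further: purified furin at 1:10 enzyme:substrate in 50 mM HEPES pH 7.5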
- Sequence (P09958 whole entry): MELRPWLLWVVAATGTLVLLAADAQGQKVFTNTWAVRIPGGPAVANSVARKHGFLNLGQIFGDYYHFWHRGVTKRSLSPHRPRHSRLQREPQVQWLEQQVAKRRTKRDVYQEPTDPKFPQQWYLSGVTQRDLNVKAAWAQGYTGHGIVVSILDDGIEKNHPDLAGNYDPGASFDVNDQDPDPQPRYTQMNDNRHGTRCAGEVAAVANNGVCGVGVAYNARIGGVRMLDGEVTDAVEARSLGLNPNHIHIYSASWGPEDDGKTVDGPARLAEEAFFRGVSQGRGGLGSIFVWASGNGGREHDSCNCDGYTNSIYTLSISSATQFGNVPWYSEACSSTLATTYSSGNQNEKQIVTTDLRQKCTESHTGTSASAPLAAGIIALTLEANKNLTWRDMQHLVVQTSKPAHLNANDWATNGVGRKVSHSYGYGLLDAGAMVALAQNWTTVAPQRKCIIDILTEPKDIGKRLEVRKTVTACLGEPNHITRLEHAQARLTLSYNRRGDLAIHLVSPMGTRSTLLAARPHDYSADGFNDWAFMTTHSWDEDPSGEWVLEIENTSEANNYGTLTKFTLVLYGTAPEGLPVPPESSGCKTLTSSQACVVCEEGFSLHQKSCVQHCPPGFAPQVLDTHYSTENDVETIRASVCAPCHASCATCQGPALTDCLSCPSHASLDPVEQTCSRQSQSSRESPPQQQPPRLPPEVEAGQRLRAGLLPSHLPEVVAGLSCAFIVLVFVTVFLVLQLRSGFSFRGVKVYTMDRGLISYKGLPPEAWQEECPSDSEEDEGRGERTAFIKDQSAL
- TEST_NAME: furin cleavage Z-score vs untreated control; higher = more cleavage, active = 3.5 or more, inactive = 1 or less, 8 variable residues between constant flanks
- EXPERIMENTAL_SETUP: 7.5 min
The list shows a part of the results. How many sequences the whole screen found active is unknown.
ENDPOINT_LABEL: furin cleavage Z-score
Form: value (number only, do not type unit).

q: Dear colleague, I am looking for the recorded furin cleavage Z-score of the following sequence: CAEVVTSTPVAGNASASA [HC2239]
a: -0.71

q: Dear colleague, I am looking for the recorded furin cleavage Z-score of the following sequence: CARNRRIITVAGNASASA [FS-3198]
a: 0.0348

q: Dear colleague, I am looking for the recorded furin cleavage Z-score of the following sequence: CAGLRRRKRDAGNASASA [FS-930]
a: 12.2

q: Dear colleague, I am looking for the recorded furin cleavage Z-score of the following sequence: CARQRRLVLVAGNASASA [FS-2764]
a: -0.772

q: Dear colleague, I am looking for the recorded furin cleavage Z-score of the following sequence: CARWGRYEGGAGNASASA [FS-2844]
a: -0.438

q: Dear colleague, I am looking for the recorded furin cleavage Z-score of the following sequence: CAHSKKKCDEAGNASASA [HC858]
a: 0.938

q: Dear colleague, I am looking for the recorded furin cleavage Z-score of the following sequence: CARQRRAITVAGNASASA [FS-2509]
a: 4.39

q: Dear colleague, I am looking for the recorded furin cleavage Z-score of the following sequence: CARQPRVDFVAGNASASA [FS-2064]
a: -1.17

q: Dear colleague, I am looking for the recorded furin cleavage Z-score of the following sequence: CAISYRFPRGAGNASASA [FS-37]
a: 4.87

q: Dear colleague, I am looking for the recorded furin cleavage Z-score of the following sequence: CAKMRRKKRFAGNASASA [FS-1459]
a: 7.33

q: Dear colleague, I am looking for the recorded furin cleavage Z-score of the following sequence: CATHRRQKRDAGNASASA [FS-1092]
a: 3.98

q: Dear colleague, I am looking for the recorded furin cleavage Z-score of the following sequence: CAATPCSAHLAGNASASA [HC2463]
a: 0.828

q: Dear colleague, I am looking for the recorded furin cleavage Z-score of the following sequence: CARKTRSARRAGNASASA [FS-2040]
a: 7.75

q: Dear colleague, I am looking for the recorded furin cleavage Z-score of the following sequence: CASGTFPINAAGNASASA [HC1189]
a: -0.56

q: Dear colleague, I am looking for the recorded furin cleavage Z-score of the following sequence: CARATRARRAAGNASASA [FS-82]
a: 10.6

q: Dear colleague, I am looking for the recorded furin cleavage Z-score of the following sequence: CAISPRQKRDAGNASASA [FS-542]
a: 12.4

q: Dear colleague, I am looking for the recorded furin cleavage Z-score of the following sequence: CATSSEPAPSAGNASASA [HC1344]
a: -0.191

q: Dear colleague, I am looking for the recorded furin cleavage Z-score of the following sequence: CAMWPLLLLLAGNASASA [HC557]
a: 0.169

q: Dear colleague, I am looking for the recorded furin cleavage Z-score of the following sequence: CAIPSRRPRFAGNASASA [FS-255]
a: 5.86

q: Dear colleague, I am looking for the recorded furin cleavage Z-score of the following sequence: CAMLSRFGRFAGNASASA [FS-692]
a: -0.109

q: Dear colleague, I am looking for the recorded furin cleavage Z-score of the following sequence: CAQREVPCHRAGNASASA [HC2442]
a: 1.83

q: Dear colleague, I am looking for the recorded furin cleavage Z-score of the following sequence: CAVECCSMSYAGNASASA [HC2012]
a: 0.483

q: Dear colleague, I am looking for the recorded furin cleavage Z-score of the following sequence: CAEVPCHSPSAGNASASA [HC2377]
a: -0.25

q: Dear colleague, I am looking for the recorded furin cleavage Z-score of the following sequence: CARERRYSTVAGNASASA [FS-2551]
a: -0.101

q: Dear colleague, I am looking for the recorded furin cleavage Z-score of the following sequence: CAWVAMTPTVAGNASASA [HC280]
a: -0.409

q: Dear colleague, I am looking for the recorded furin cleavage Z-score of the following sequence: CARWKRTQRHAGNASASA [FS-2623]
a: 8.7

q: Dear colleague, I am looking for the recorded furin cleavage Z-score of the following sequence: CAALSRPRRLAGNASASA [FS-749]
a: 2.43

q: Dear colleague, I am looking for the recorded furin cleavage Z-score of the following sequence: CAKKERRPRGAGNASASA [FS-671]
a: 1.59

q: Dear colleague, I am looking for the recorded furin cleavage Z-score of the following sequence: CALNEIKKRFAGNASASA [FS-352]
a: 0.841

q: Dear colleague, I am looking for the recorded furin cleavage Z-score of the following sequence: CARWKRYRRWAGNASASA [FS-1077]
a: 10.1
